Tested on: ZR-75-1 cells
methodSummary: Proliferation assay ZR-75-1 (Alamar Blue, 144 h)
Assay type: cell-based
testContext: Homo sapiens, ZR-75-1, 144 h, arithmetic mean, read-out: ZR75-1 proliferation assay, EC50 [M] (arithmetic mean)
Entries and their EC50
Your answer should be a plain number; it is taken to be in M.

Worked examples follow.
Cc1ccc2cccc(S(=O)(=O)NC(=O)c3cc4ccc(N(C)C)cc4o3)c2n1 | 7.21e-08
CCCOc1ccccc1S(=O)(=O)NC(=O)c1cc2c(F)cc(N(C)C)cc2o1 | 4.89e-08
CC(C)Oc1ccccc1S(=O)(=O)NC(=O)c1cc2ccc(N(C)C)cc2o1 | 5.24e-08

Task: Any idea what its EC50 is? The compound is COc1cc(C#N)ccc1S(=O)(=O)NC(=O)c1cc2ccc(N(C)C)cc2o1
Output: 2.64e-07

Task: Any idea what its EC50 is? The compound is Cc1cccc(Nc2ccncc2S(=O)(=O)NC(=O)c2cc3ccc(N(C)C)cc3o2)c1
Output: 2.87e-06

Task: Any idea what its EC50 is? The compound is CN(C)c1ccc2cc(C(=O)NS(=O)(=O)c3ccccc3OCCF)oc2c1
Output: 1.31e-07

From: patent US12357603B2
